Values from patent US20260034044A1

Listing of recorded MIC by entry.
- Tested on: Malassezia furfur DSM 6170
Provide the reading as a plain figure in µg/mL.

Would you kindly share the measured MIC for C[C@@H]1CC[C@@]2(OC1)O[C@H]1CC3C4CC=C5CC(O[C@@H]6O[C@H](CO)[C@@H](O[C@@H]7O[C@@H](C)[C@H](O[C@@H]8O[C@@H](C)[C@H](O)[C@@H](O)[C@H]8O)[C@@H](O)[C@H]7O)[C@H](O)[C@H]6O[C@@H]6O[C@@H](C)[C@H](O)[C@@H](O)[C@H]6O)CC[C@]5(C)C4CC[C@]3(C)[C@@]1(O)[C@@H]2C (stereo partly shown) [B] ?
80

Need MIC of CC1CC[C@@]2(OC1)O[C@H]1CC3C4CC=C5C[C@@H](O[C@@H]6O[C@H](CO)[C@@H](O[C@@H]7O[C@@H](C)[C@H](O)[C@@H](O)[C@H]7O)[C@H](O)[C@H]6O[C@@H]6O[C@@H](C)[C@H](O)[C@@H](O)[C@H]6O)CC[C@]5(C)C4CC[C@]3(C)[C@@]1(O)[C@@H]2C (stereo partly shown) [C] , thanks.
80
